Structures can show the parent of a compound that is named as a salt.
endpointName: melting point

[
  {
    "molecule": "CN(C)C(=O)c1ccc(-c2ccc3c(c2)CCN(CCN2CCCC2)C3=O)c(F)c1 (as salt: hydrochloride)",
    "result": "228 to 229 °C"
  },
  {
    "molecule": "c1cc2c(cc1-c1ccc3c(c1)OCO3)CCN(CCN1CCCC1)C2",
    "result": "257 to 259 °C"
  },
  {
    "molecule": "O=C(NC1CCCC1)c1ccc(-c2ccc3c(c2)CCN(CCN2CCCC2)C3=O)cc1",
    "result": "258 to 260 °C"
  },
  {
    "molecule": "O=C(c1ccc(-c2ccc3c(c2)CCN(CCN2CCCC2)C3)cc1)N1CCOCC1 (as salt: hydrochloride)",
    "result": "260 to 261 °C"
  },
  {
    "molecule": "O=C1c2ccc(-c3cccc(OC(F)(F)F)c3)cc2CCN1CCN1CCCC1 (as salt: hydrochloride)",
    "result": "135 to 137 °C"
  },
  {
    "molecule": "O=C(c1ccc(-c2ccc3c(c2)CCN(CCN2CCCC2)C3=O)cc1)C1CC1",
    "result": "244 to 246 °C"
  },
  {
    "molecule": "O=C1c2ccc(N3CCCCC3)cc2CCN1CCN1CCCC1 (as salt: hydrochloride)",
    "result": "245 to 246 °C"
  },
  {
    "molecule": "Fc1ccc(-c2ccc3c(c2)CCN(CCN2CCCCC2)C3)cc1",
    "result": "272 to 274 °C"
  },
  {
    "molecule": "CCN(C)C(=O)c1ccc(-c2ccc3c(c2)CCN(CCN2CCCC2)C3=O)cc1 (as salt: hydrochloride)",
    "result": "200 to 201 °C"
  },
  {
    "molecule": "CNC(=O)c1ccc(-c2ccc3c(c2)CCN(CCN2CCCC2)C3=O)cc1 (as salt: hydrochloride)",
    "result": "235 to 236 °C"
  },
  {
    "molecule": "C[C@@H]1CCCN1CCN1CCc2cc(C(=O)NC3CCC3)ccc2C1=O (as salt: hydrochloride)",
    "result": "214 to 215 °C"
  },
  {
    "molecule": "CON(C)C(=O)c1ccc(-c2ccc3c(c2)CCN(CCN2CCCC2)C3=O)cc1 (as salt: hydrochloride)",
    "result": "190 to 191 °C"
  },
  {
    "molecule": "C[C@@H]1CCCN1CCN1CCc2cc(C(=O)N3Cc4ccccc4C3)ccc2C1=O (as salt: hydrochloride)",
    "result": "109 to 110 °C"
  }
]

----------
Where a name gives a salt, the structure may show the parent alone.
endpointName: melting point

[
  {
    "molecule": "C[C@@H]1CCCN1CCN1CCc2cc(-c3ccc(F)cc3)ccc2C1=O (as salt: hydrochloride) [Example 40]",
    "result": "236 to 238 °C"
  },
  {
    "molecule": "C[C@@H]1CCCN1CCN1CCc2cc(OCc3ccc(C#N)cc3)ccc2C1=O (as salt: hydrochloride) [Example 120]",
    "result": "212 to 214 °C"
  },
  {
    "molecule": "C[C@@H]1CCCN1CCN1CCc2cc(C(=O)NC3CCCCC3)ccc2C1=O (as salt: hydrochloride) [Example 147]",
    "result": "140 to 141 °C"
  },
  {
    "molecule": "C[C@@H]1CCCN1CCN1CCc2c(cccc2-c2cccc(C#N)c2)C1=O (as salt: hydrochloride) [Example 27]",
    "result": "203 to 205 °C"
  },
  {
    "molecule": "C[C@@H]1CCCN1CCN1CCc2cc(-c3ccc(C(=O)NC4CCCC4)cc3)ccc2C1=O (as salt: hydrochloride) [Example 80]",
    "result": "260 to 262 °C"
  },
  {
    "molecule": "C[C@@H]1CCCN1C(=O)c1ccc(-c2ccc3c(c2)CCN(CCN2CCCC2)C3=O)cc1 (as salt: hydrochloride) [Example 82]",
    "result": "170 to 171 °C"
  },
  {
    "molecule": "Fc1ccc(-c2ccc3c(c2)CCN(CCN2CCCC2)C3)cc1 [Example 177]",
    "result": "250 to 251 °C"
  },
  {
    "molecule": "O=C1c2ccc(-c3ccccc3F)cc2CCN1CCN1CCCC1 (as salt: hydrochloride) [Example 12]",
    "result": "211 to 213 °C"
  },
  {
    "molecule": "O=C(NCCCl)c1ccc(-c2ccc3c(c2)CCN(CCN2CCCC2)C3=O)cc1 (as salt: hydrochloride) [Example 123]",
    "result": "236 to 237 °C"
  },
  {
    "molecule": "CCOCCNC(=O)c1ccc(-c2ccc3c(c2)CCN(CCN2CCCC2)C3=O)cc1 (as salt: hydrochloride) [Example 72]",
    "result": "193 to 195 °C"
  },
  {
    "molecule": "O=C(NCC1CC1)c1ccc(-c2ccc3c(c2)CCN(CCN2CCCC2)C3=O)cc1 (as salt: hydrochloride) [Example 60]",
    "result": "216 to 218 °C"
  },
  {
    "molecule": "O=C1c2ccc(-c3ccc4c(c3)OCO4)cc2CCN1CCN1CCCC1 (as salt: hydrochloride) [Example 21]",
    "result": "249 to 251 °C"
  },
  {
    "molecule": "CN(C)C(=O)c1ccc(-c2ccc3c(c2)CCN(CCN2CCCC2)C3)cc1 (as salt: hydrochloride) [Example 183]",
    "result": "248 to 250 °C"
  },
  {
    "molecule": "N#Cc1ccc(-c2ccc3c(c2)CCN(CCN2CCCC2)C3=O)cc1 (as salt: hydrochloride) [Example 19]",
    "result": "249 to 251 °C"
  },
  {
    "molecule": "FC(F)(F)Oc1ccc(-c2ccc3c(c2)CCN(CCN2CCCC2)C3)cc1 [Example 171]",
    "result": "> 230 °C"
  },
  {
    "molecule": "O=C1c2ccc(N3CCCCC3)cc2CCN1CCN1CCCCCC1 (as salt: hydrochloride) [Example 164]",
    "result": "229 to 231 °C"
  },
  {
    "molecule": "C[C@@H]1CCCN1CCN1Cc2cc(-c3ccc(C(=O)N4CCCC4)cc3)ccc2C1=O [Example 119]",
    "result": "184 to 185 °C"
  },
  {
    "molecule": "NC(=O)c1ccc(-c2ccc3c(c2)CCN(CCN2CCCC2)C3)cc1 (as salt: hydrochloride) [Example 180]",
    "result": "262 to 264 °C"
  },
  {
    "molecule": "O=C(NC1CC1)c1ccc(Oc2ccc3c(c2)CCN(CCN2CCCC2)C3=O)cc1 [Example 99]",
    "result": "227 to 228 °C"
  }
]
